# Tested on: Trypanosoma brucei
# ASSAY METHOD TEXT: Antiparasitic activity against Trypanosoma brucei 221 blood stream form at pH 7.4
# Assay type: functional, organism-based
pIC50: −log10 of the molar value.
READOUT: pIC50

Some molecules with recorded pIC50:
**Query** For the record NC12CC3CC(CC(C3)C1)C2 , what value of pIC50 is listed for Trypanosoma brucei?
**Result** < 3.89

**Query** For the record CN1CCC2(CC1)C1CC3CC(C1)CC2C3 , what value of pIC50 is listed for Trypanosoma brucei?
**Result** < 4.70

**Query** For the record C1C2CC3CC1CC(C2)C31CN1 (centres undefined) , what value of pIC50 is listed for Trypanosoma brucei?
**Result** < 4.52

Would you kindly look at the next entry?
**Query** For the record CN1CCC12C1CC3CC(C1)CC2C3 (centres undefined) , what value of pIC50 is listed for Trypanosoma brucei?
**Result** < 4.60
